biological target: ERα (Homo sapiens, UniProt P03372); experiment: Competition binding with [3H]estradiol in MCF-7 cells; details: pKi, competition with radioactive-labeled estradiol
Sequence (P03372 whole entry): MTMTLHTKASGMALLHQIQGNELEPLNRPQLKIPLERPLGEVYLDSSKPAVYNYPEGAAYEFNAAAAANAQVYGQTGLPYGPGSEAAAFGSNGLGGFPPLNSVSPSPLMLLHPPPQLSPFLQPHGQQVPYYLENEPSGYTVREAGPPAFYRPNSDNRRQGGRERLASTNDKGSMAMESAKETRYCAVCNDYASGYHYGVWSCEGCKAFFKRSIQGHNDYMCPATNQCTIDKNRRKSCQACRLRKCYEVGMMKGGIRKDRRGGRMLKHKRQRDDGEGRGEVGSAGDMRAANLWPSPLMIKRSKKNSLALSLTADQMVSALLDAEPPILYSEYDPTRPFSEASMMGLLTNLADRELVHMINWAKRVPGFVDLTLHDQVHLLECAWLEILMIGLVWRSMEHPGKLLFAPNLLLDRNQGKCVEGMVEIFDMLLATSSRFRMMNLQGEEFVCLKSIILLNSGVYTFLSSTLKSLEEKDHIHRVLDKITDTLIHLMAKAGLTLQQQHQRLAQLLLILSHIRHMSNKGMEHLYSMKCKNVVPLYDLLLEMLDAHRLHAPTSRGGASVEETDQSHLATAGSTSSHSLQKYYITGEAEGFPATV
assay_readout: Ki (nM)
# output: bare number, implied unit nM

Returns the measured Ki for the input compound. Input: CCCOC(=O)c1cc(O)c(O)c(O)c1 [propyl gallate]
40.7

* * *

target: ERα (Homo sapiens, UniProt P03372); experiment: Competition binding with [3H]estradiol in MCF-7 cells; conditions: binding constant, competition with radioactive-labeled estradiol, Figure 4a
assay_readout: Ki (nM)
Give the number; nM is assumed, so skip it.

I would be grateful if you could share the reported Ki for CCCOC(=O)c1cc(O)c(O)c(O)c1 [propyl gallate] .
54
